Target: DLL4 extracellular domain (R&D systems, catalog #1506-D4/CF) (UniProt Q9NR61 27-529, limits assumed)
Sequence (Q9NR61 27-529 limits assumed): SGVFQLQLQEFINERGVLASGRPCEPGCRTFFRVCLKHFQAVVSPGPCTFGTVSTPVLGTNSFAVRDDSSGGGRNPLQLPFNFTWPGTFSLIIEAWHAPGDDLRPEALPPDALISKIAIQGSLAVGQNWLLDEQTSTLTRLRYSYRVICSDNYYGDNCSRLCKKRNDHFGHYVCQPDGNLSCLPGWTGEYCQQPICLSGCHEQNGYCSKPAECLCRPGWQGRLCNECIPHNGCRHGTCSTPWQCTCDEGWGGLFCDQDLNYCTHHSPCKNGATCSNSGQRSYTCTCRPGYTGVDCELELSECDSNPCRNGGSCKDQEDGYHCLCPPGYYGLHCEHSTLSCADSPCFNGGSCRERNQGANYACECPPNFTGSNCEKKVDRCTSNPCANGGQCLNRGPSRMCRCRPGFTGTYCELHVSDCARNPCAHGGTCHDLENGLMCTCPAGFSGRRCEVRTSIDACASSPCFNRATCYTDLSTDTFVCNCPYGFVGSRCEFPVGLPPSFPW
Assay: cell-based or functional assay
Overview of reported % inhibition 10 µg/ml, AVERAGE (HUVEC proliferation on coated DLL4) across a group of binders:
Output spec: scalar in %, unitless text.

Worked examples follow.
[[record]]
binder = "12A1 (antibody, IgG4, V domains shown, Fully human; also used where no isotype is printed) VH: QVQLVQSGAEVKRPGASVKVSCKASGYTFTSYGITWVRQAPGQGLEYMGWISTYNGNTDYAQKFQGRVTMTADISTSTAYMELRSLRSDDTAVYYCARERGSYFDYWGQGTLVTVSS VL: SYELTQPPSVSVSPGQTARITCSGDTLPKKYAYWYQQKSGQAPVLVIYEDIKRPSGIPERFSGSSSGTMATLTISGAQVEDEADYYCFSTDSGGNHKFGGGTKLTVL"
result_units = "%"
experimental_value = 74

[[record]]
binder = "4B4 (antibody, IgG4, V domains shown, Fully human; used for IgG4 rows and where no isotype is printed; also called 4B4 IgG4; 4B4.1) VH: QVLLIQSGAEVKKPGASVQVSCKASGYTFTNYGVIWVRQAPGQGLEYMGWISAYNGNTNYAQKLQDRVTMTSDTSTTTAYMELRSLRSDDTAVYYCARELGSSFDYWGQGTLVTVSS VL: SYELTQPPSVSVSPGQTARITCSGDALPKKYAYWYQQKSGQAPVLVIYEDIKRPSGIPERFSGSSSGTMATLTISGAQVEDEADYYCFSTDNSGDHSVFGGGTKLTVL"
result_units = "%"
experimental_value = 97


Now consider a different binder.
Quickly give me recorded % inhibition 10 µg/ml, AVERAGE (HUVEC proliferation on coated DLL4) for 1E4 (antibody, IgG2, V domains shown, Fully human; also used where no isotype is printed) VH: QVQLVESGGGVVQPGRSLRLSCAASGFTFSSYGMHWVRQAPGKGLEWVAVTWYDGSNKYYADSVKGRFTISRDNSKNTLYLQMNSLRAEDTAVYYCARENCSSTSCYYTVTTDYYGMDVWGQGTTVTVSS VL: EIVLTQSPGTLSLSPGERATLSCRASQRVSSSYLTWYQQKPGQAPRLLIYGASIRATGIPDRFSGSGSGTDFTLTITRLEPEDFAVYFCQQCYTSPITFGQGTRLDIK 82

meta.source: patent US20100196385A1
